# Tested on: KASUMI-2
# measurement_protocol: selective drug sensitivity score (sDSS, relative to normal bone marrow) (sDSS (score)); higher = more potent and effective on the cell line relative to normal bone marrow cells;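 also: ALL cell lines in 384-well plates, five doses spanning 10,000-fold, each plate scaled between vehicle and 100 µmol/L benzalkonium chloride controls, sDSS an adapted area-under-curve metric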
# measurement_conditions: 72 h

| compound | selective drug sensitivity score |
| --- | --- |
| NCCNc1ccc(NCCN)c2c1C(=O)c1ccncc1C2=O [Pixantrone] (top concentration 10000 nM) | -2.76 |
| COc1cc(OC2CCN(C)CC2)ccc1Nc1ncc2c(n1)n(C1CCCC1)c(=O)n2C [AZ3146] (top concentration 10000 nM) | -4.16 |
| Cc1cc(Nc2cc(CN3CCOCC3)c3nc(C)c(Cc4ccc(Cl)cc4F)n3n2)n[nH]1 [Gandotinib] (top concentration 10000 nM) | 7.18 |
| CN(C)C(=O)c1cc2cnc(Nc3ccc(N4CCNCC4)cn3)nc2n1C1CCCC1 [Ribociclib] (top concentration 10000 nM) | -0.92 |

---

# Tested on: CCRF-HSB2
# measurement_protocol: selective drug sensitivity score (sDSS, relative to normal bone marrow) (sDSS (score)); higher = more potent and effective on the cell line relative to normal bone marrow cells
# measurement_conditions: 72 h
# selective drug sensitivity score annotations

| compound | selective drug sensitivity score |
| --- | --- |
| COc1ccc(CCc2nc3cc(-c4c(C)noc4C)ccc3n2C[C@H](C)N2CCOCC2)cc1Cl [SGC-CBP30] (top concentration 25000 nM) | 2.38 |
| N#Cc1ccc(C(c2ccc(C#N)cc2)n2cncn2)cc1 [Letrozole] (top concentration 10000 nM) | -0.04 |
| CC(C)(O)CNc1nc(Nc2ccnc(C(F)(F)F)c2)nc(-c2cccc(C(F)(F)F)n2)n1 [Enasidenib] (top concentration 10000 nM) | -0.1 |
| CNC(=O)c1cc(COc2nnc(Nc3ccc(Cl)cc3)c3ccoc23)ccn1 [Telatinib] (top concentration 10000 nM) | 0 |
| CCN(CC)CCOc1ccc(/C(=C(/Cl)c2ccccc2)c2ccccc2)cc1 [Clomifene] (top concentration 10000 nM) | 1.52 |
| CO[C@@H](C)Cn1c(=O)n(C)c2cnc3ccc(-c4cncc(C(C)(C)O)c4)cc3c21 (top concentration 2500 nM) | 5.58 |
| Cn1cc(C2=C(c3cn(C4CCN(Cc5ccccn5)CC4)c4ccccc34)C(=O)NC2=O)c2ccccc21 [Enzastaurin] (top concentration 10000 nM) | 5.06 |
| OC[C@H]1O[C@@H](n2cnc3c2N=CNC[C@H]3O)C[C@@H]1O [Pentostatin] (top concentration 10000 nM) | -0.44 |
| CN(C)Cc1ccc(S(=O)(=O)n2ccc(/C=C/C(=O)NO)c2)cc1 [Resminostat] (top concentration 10000 nM) | 2.24 |
| COc1ccc(C[C@H](NC(=O)[C@H](C)NC(=O)CN2CCOCC2)C(=O)N[C@@H](Cc2ccccc2)C(=O)[C@@]2(C)CO2)cc1 [ONX-0914] (top concentration 10000 nM) | 9.9 |
| C1=N/C2=N/c3ccc(OCCN4CCCC4)c(c3)COC/C=C/COCc3cccc(c3)C(=C1)N2 [Pacritinib] (top concentration 10000 nM) | -3.5 |
| CNC(=O)c1ccc(N2C(=S)N(c3ccc(C#N)c(C(F)(F)F)c3)C(=O)C2(C)C)cc1F [Enzalutamide] (top concentration 10000 nM) | -0.52 |
| CO[C@@H](C(=O)N1Cc2[nH]nc(NC(=O)c3ccc(N4CCN(C)CC4)cc3)c2C1)c1ccccc1 [Danusertib] (top concentration 10000 nM) | 19.8 |

---

# Tested on: NALM-6
# measurement_protocol: selective drug sensitivity score (sDSS, relative to normal bone marrow) (sDSS (score)); higher = more potent and effective on the cell line relative to normal bone marrow cells
# measurement_conditions: 72 h
Criterion: selective drug sensitivity score meeting or surpassing 1. Met: true. Not met: false.

| molecule | qualitative_label |
| --- | --- |
| CC(C)(C)c1cc(NC(=O)Nc2ccc(-c3cn4c(n3)sc3cc(OCCN5CCOCC5)ccc34)cc2)no1 [Quizartinib] (top concentration 1000 nM) | true |
| COc1cccc2c1c(O)c(C(=O)N(C)c1ccc(C(F)(F)F)cc1)c(=O)n2C [Tasquinimod] (top concentration 10000 nM) | false |
| C[C@H]1C[C@@H]2[C@H]([C@@H](O)C[C@@]3(C)[C@H]2CC[C@]3(O)C(=O)CO)[C@@]2(C)C=CC(=O)C=C12 [Methylprednisolone] (top concentration 10000 nM) | true |
| Cc1ccc(NC(=O)c2ccc(CN3CCN(C)CC3)cc2)cc1Nc1nccc(-c2cccnc2)n1 [Imatinib] (top concentration 10000 nM) | false |
| CC[C@@H]1C(=O)N(C)c2cnc(Nc3ccc(C(=O)N[C@H]4CC[C@H](N5CCN(CC6CC6)CC5)CC4)cc3OC)nc2N1C(C)C [Volasertib] (top concentration 1000 nM) | true |
| NC(=O)c1cccc2cn(-c3ccc(C4CCCNC4)cc3)nc12 (stereo unspecified) [Niraparib] (top concentration 10000 nM) | true |

---

# Tested on: CCRF-HSB2
# measurement_protocol: selective drug sensitivity score (sDSS, relative to normal bone marrow) (sDSS (score)); higher = more potent and effective on the cell line relative to normal bone marrow cells
# measurement_conditions: 72 h

| molecule | selective drug sensitivity score |
| --- | --- |
| CC[C@@](C)(Nc1ccnc(-c2c[nH]c3ncccc23)n1)C(=O)NCC(F)(F)F [Decernotinib] (top concentration 10000 nM) | 1.16 |
| CCCCCOC(=O)Nc1nc(=O)n([C@@H]2O[C@H](C)[C@@H](O)[C@H]2O)cc1F [Capecitabine] (top concentration 10000 nM) | -0.06 |
| CO[C@H]1C(=O)[C@]2(C)[C@@H](OC)C[C@H]3OC[C@@]3(OC(C)=O)[C@H]2[C@H](OC(=O)c2ccccc2)[C@]2(O)C[C@H](OC(=O)[C@H](O)[C@@H](NC(=O)OC(C)(C)C)c3ccccc3)C(C)=C1C2(C)C [Cabazitaxel] (top concentration 1000 nM) | 21.1 |
| Cc1cc(Nc2cc(CN3CCOCC3)c3nc(C)c(Cc4ccc(Cl)cc4F)n3n2)n[nH]1 [Gandotinib] (top concentration 10000 nM) | 5.98 |
| CS(=O)(=O)c1ccc(-c2cnc(N)c(C(=O)Nc3ccccc3)n2)cc1 [VE-821] (top concentration 10000 nM) | 4.44 |
| Nc1nc(NC2CC2)cc(-c2cccc(Cl)c2Cl)n1 [TH588] (top concentration 25000 nM) | 8.42 |

---

# System: CCRF-CEM
# measurement_protocol: selective drug sensitivity score (sDSS, relative to normal bone marrow) (sDSS (score)); higher = more potent and effective on the cell line relative to normal bone marrow cells
# measurement_conditions: 72 h
// label = 1 if selective drug sensitivity score is not less than 9, otherwise 0

| molecule | qualitative_label |
| --- | --- |
| Nc1nc2[nH]cc(CCc3ccc(C(=O)N[C@@H](CCC(=O)O)C(=O)O)cc3)c2c(=O)[nH]1 [Pemetrexed] (top concentration 10000 nM) | 1 |
| Cc1cn(-c2cc(NC(=O)c3ccc(C)c(Nc4nccc(-c5cccnc5)n4)c3)cc(C(F)(F)F)c2)cn1 [Nilotinib] (top concentration 10000 nM) | 0 |
| CC[C@]1(O)C[C@H]2CN(CCc3c([nH]c4ccccc34)[C@@](C(=O)OC)(c3cc4c(cc3OC)N(C)[C@H]3[C@@](O)(C(=O)OC)[C@H](OC(C)=O)[C@]5(CC)C=CCN6CC[C@]43[C@@H]65)C2)C1 [Vinblastine] (top concentration 1000 nM) | 0 |
| FC(F)c1nc2ccccc2n1-c1nc(N2CCOCC2)nc(N2CCOCC2)n1 [ZSTK474] (top concentration 10000 nM) | 1 |
| CN(C)CCCOc1ccc(-c2ccc3ncc4c(c3c2)n(C2CCOCC2)c(=O)n4C)cn1 [AZD0156] (top concentration 1000 nM) | 0 |
| O=C(c1cccc(Cl)c1F)N1CCN(Cc2cccc(Nc3nccs3)n2)CC1 [MK-8745] (top concentration 10000 nM) | 1 |

---

selective drug sensitivity score reference
# Test system: REH
# measurement_protocol: selective drug sensitivity score (sDSS, relative to normal bone marrow) (sDSS (score)); higher = more potent and effective on the cell line relative to normal bone marrow cells
# measurement_conditions: 72 h
measured_property: selective drug sensitivity score

| molecule | numeric_readout |
| --- | --- |
| Cc1c(-c2ccc(N3CCc4cccc(C(=O)Nc5nc6ccccc6s5)c4C3)nc2C(=O)O)cnn1CC12CC3CC(CC(C3)C1)C2 (top concentration 1000 nM) | -2.26 |
| Cc1ccc(NC(=O)c2ccc(CN3CCN(C)CC3)cc2)cc1Nc1nccc(-c2cccnc2)n1 [Imatinib] (top concentration 10000 nM) | 0.56 |
| Cc1ccc(NC(=O)c2ccc(CN3CC[C@H](N(C)C)C3)c(C(F)(F)F)c2)cc1Nc1nccc(-c2cncnc2)n1 [Bafetinib] (top concentration 1000 nM) | 0.2 |
| C[C@@H]1CN(Cc2ccc(F)cc2)[C@@H](C)CN1C(=O)c1cc2c(C(=O)C(=O)N(C)C)cn(C)c2cc1Cl [Talmapimod] (top concentration 10000 nM) | 2.8 |
| FC(F)(F)c1ccc(/C=C/c2nc(COc3ccc(CCCCn4ccnn4)cc3)co2)cc1 [Mubritinib] (top concentration 1000 nM) | 20 |
| CNS(=O)(=O)Nc1nccc(Cc2c(C)c3ccc(Oc4ncccn4)cc3oc2=O)c1F (top concentration 1000 nM) | -0.38 |
| CNC(=O)c1ccc(N2C(=S)N(c3ccc(C#N)c(C(F)(F)F)c3)C(=O)C2(C)C)cc1F [Enzalutamide] (top concentration 10000 nM) | -0.82 |
| CN(C)CCCOc1ccc(-c2ccc3ncc4c(c3c2)n(C2CCOCC2)c(=O)n4C)cn1 [AZD0156] (top concentration 1000 nM) | 0.84 |
| C=CC(=O)Nc1cc2c(Nc3ccc(F)c(Cl)c3)ncnc2cc1OCCCN1CCOCC1 [Canertinib] (top concentration 10000 nM) | 0.26 |
| O=C(c1cccc(Cl)c1F)N1CCN(Cc2cccc(Nc3nccs3)n2)CC1 [MK-8745] (top concentration 10000 nM) | 11.6 |
| COc1ccc(-c2ccc3ncc4c(c3c2)n(-c2ccc(N3CCNCC3)c(C(F)(F)F)c2)c(=O)n4C)cn1 [NVP-BGT226] (top concentration 1000 nM) | 8.22 |
| COc1cc(OC)c(/C=C/S(=O)(=O)Cc2ccc(OC)c(NCC(=O)O)c2)c(OC)c1 [Rigosertib] (top concentration 10000 nM) | 14 |
| O=c1sn(-c2cccc3ccccc23)c(=O)n1Cc1ccccc1 [Tideglusib] (top concentration 3000 nM) | 0.4 |
| CC(C)N(C[C@H]1O[C@@H](n2cnc3c(N)ncnc32)[C@H](O)[C@@H]1O)[C@H]1C[C@@H](CCc2nc3cc(C(C)(C)C)ccc3[nH]2)C1 [Pinometostat] (top concentration 1000 nM) | 0 |
| Nc1cc(F)ccc1NC(=O)/C=C/c1cnn(C/C=C/c2ccccc2)c1 [RGFP966] (top concentration 10000 nM) | 17.1 |
| S=C(NCc1ccc2c(c1)OCO2)N1CCN(c2ncnc3c2oc2ccccc23)CC1 [Amuvatinib] (top concentration 10000 nM) | 5.56 |
| CCc1cncnc1N1CCN(Cc2nc3cc(C(F)(F)F)ccc3[nH]2)CC1 (top concentration 10000 nM) | 6.26 |
| CC#CC(=O)N1CC[C@@H](n2c(=O)n(-c3ccc(Oc4ccccc4)cc3)c3c(N)ncnc32)C1 [Tirabrutinib] (top concentration 1000 nM) | 0 |
| COc1cc2nccc(Oc3ccc(NC(=O)Nc4cc(C)on4)c(Cl)c3)c2cc1OC [Tivozanib] (top concentration 10000 nM) | 0.36 |
| CNC(=O)c1ccccc1Nc1nc(Nc2ccc3c(c2OC)CCC[C@H](N2CCN(CCO)CC2)C3)ncc1Cl (top concentration 5000 nM) | -2.24 |
| CC[C@@H]1C(=O)N(C)c2cnc(Nc3ccc(C(=O)NC4CCN(C)CC4)cc3OC)nc2N1C1CCCC1 [BI-2536] (top concentration 1000 nM) | 16.4 |
| COc1c(OCCCN2CCOCC2)ccc2c1N=C(NC(=O)c1cnc(N)nc1)N1CCN=C21 [Copanlisib] (top concentration 1000 nM) | 8.28 |
| COc1ccc2[nH]cc(/C=C3\C(=O)Nc4ccc(NC(=O)CCN5CCCCC5)cc43)c2c1 (top concentration 50000 nM) | -1.62 |
| NCCNc1ccc(NCCN)c2c1C(=O)c1ccncc1C2=O [Pixantrone] (top concentration 10000 nM) | 0.24 |
| O=C(O)c1ccc(-c2c[nH]c3ncc(-c4ccccc4)cc23)cc1C1CCCC1 (top concentration 10000 nM) | -1.44 |
